Biological target: Cytochrome P450 1A2 (Homo sapiens)
Sequence (P05177 whole entry): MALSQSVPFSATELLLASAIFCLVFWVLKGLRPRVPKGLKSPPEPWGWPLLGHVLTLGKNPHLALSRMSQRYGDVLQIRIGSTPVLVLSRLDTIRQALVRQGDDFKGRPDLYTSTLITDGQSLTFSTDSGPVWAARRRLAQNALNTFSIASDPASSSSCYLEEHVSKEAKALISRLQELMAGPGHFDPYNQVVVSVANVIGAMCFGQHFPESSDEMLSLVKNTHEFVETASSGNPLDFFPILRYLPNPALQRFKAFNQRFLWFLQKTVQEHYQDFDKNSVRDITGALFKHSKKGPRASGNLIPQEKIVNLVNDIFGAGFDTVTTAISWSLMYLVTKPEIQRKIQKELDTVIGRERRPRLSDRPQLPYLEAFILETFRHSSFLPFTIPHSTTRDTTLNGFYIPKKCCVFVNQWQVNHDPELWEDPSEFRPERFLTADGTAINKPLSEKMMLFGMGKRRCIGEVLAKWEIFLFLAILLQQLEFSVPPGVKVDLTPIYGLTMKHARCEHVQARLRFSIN
pIC50: −log10 of the molar value.
measure.name: pIC50

I. Cc1cc(Nc2cc(C)c(C#N)c(NCCOc3ccccc3Cl)n2)n[nH]1
II. CCc1ccc(OCCNc2nc(Nc3cc(C)[nH]n3)cc(C)c2C#N)cn1
Hi, I'm comparing I with II and wondering which one has the bigger number for pIC50. Any idea? Which one? Tell me its label. I

====

Molecular target: Proto-oncogene tyrosine-protein kinase Src (Homo sapiens)
Sequence (P12931 2-536 limits assumed): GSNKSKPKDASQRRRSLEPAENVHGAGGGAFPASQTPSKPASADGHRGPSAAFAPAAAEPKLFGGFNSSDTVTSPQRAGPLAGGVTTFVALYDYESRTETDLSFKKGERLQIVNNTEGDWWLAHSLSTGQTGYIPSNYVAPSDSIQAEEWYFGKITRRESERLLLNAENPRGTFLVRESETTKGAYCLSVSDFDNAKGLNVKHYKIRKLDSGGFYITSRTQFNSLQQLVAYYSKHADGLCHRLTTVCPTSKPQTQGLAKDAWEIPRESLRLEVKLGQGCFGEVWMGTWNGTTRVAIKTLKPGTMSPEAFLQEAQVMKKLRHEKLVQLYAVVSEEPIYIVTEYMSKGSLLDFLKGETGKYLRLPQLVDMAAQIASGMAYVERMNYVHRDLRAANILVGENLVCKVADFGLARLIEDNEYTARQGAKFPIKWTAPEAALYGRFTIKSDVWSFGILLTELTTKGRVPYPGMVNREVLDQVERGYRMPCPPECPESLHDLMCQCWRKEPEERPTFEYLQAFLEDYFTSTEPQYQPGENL
measure.name: Ki (nM)
Could you give me the number in nM? Just the number is fine.

// field: Ki; key: Cc1ccc(OCCNc2nc(Nc3cc(C)[nH]n3)cc(C)c2C#N)cn1 ; value = 480

====

pIC50: −log10 of the molar value.
This document collects pIC50 values reported for Cytochrome P450 2C9 (Homo sapiens).
measure.name: pIC50

entry.smiles: Cc1cc(Nc2cc(C)c(C#N)c(NCCOc3cccnc3C)n2)n[nH]1
pIC50: 5.62

1. Cc1ccc(OCCNc2nc(Nc3cc(C)[nH]n3)cc(C)c2C#N)cn1
2. Cc1cc(Nc2cc(C)c(C#N)c(N[C@@H](C)CCCC(C)(C)O)n2)n[nH]1
Between 1 and 2 , which one has the lower reported pIC50 value? Which one? Tell me its label. 1

====

Biological target: Tyrosine-protein kinase Lyn (Homo sapiens, UniProt P07948)
Sequence (P07948 whole entry): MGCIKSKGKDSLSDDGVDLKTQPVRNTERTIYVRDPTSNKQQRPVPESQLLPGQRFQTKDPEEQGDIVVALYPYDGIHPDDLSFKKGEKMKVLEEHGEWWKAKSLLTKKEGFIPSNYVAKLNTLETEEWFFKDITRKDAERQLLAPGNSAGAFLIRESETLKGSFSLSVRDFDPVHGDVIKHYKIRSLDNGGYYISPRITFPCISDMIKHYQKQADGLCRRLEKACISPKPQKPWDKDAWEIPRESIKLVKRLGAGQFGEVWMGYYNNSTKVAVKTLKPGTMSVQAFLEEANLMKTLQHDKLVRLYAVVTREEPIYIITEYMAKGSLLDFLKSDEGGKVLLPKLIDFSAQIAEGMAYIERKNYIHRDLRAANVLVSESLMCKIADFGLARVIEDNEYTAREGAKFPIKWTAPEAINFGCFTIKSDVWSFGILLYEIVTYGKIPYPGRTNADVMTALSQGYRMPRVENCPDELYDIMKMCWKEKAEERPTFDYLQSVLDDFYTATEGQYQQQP
measure.name: pKi
Scale: negative log10 of molar concentration, which is what pKi denotes.

// field: pKi; key: Cc1ccc(OCCNc2nc(Nc3cc(C)[nH]n3)cc(C)c2C#N)cn1 ; value = 6.31

====

This document collects IC50 values reported for Cytochrome P450 3A4 (Homo sapiens, UniProt P08684).
measure.name: IC50 (nM)

Worked cases, answers included:
entry.smiles: Cc1ccc(OCCNc2nc(Nc3cc(C)[nH]n3)cc(C)c2C#N)cn1
IC50 [nM]: 4500

entry.smiles: CCc1ccc(OCCNc2nc(Nc3cc(C)[nH]n3)cc(C)c2C#N)cn1
IC50 [nM]: 1600

entry.smiles: Cc1cc(Nc2cc(C)c(C#N)c(NCCOc3ccccc3F)n2)n[nH]1
IC50 [nM]: 1600

P. Cc1cc(Nc2cc(C)c(C#N)c(NCCOc3cccnc3C)n2)n[nH]1
Q. Cc1cc(Nc2cc(C)c(C#N)c(NCCOc3ccccn3)n2)n[nH]1
Hi, I'm comparing P with Q and wondering which one has the bigger number for IC50. Any idea? Which one? Tell me its label. Q
(Q: 7200 nM, P: 1800 nM)

====

Molecular target: UniProtKB O14965
Sequence (O14965 whole entry): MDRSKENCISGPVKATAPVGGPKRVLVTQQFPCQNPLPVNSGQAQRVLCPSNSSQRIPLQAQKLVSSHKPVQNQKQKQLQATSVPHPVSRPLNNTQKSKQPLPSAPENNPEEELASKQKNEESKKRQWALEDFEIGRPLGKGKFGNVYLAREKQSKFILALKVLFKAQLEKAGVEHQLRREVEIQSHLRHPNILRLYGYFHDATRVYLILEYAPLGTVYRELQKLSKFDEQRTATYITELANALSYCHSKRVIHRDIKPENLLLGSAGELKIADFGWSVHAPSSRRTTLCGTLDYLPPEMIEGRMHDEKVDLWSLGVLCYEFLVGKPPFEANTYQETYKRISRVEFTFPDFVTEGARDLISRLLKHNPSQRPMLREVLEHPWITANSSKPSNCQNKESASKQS
Experiment: Inhibition of recombinant Aurora A kinase derived from human Hela cells using kemptide as substrate in presence of [c-32P]ATP
pKi: −log10 of the molar value.
measure.name: pKi

entry.smiles: CCc1ccc(OCCNc2nc(Nc3cc(C)[nH]n3)cc(C)c2C#N)cn1
target: UniProtKB O14965
pKi: 8.22
//
entry.smiles: Cc1cc(Nc2cc(C)c(C#N)c(NCCOc3ccncc3)n2)n[nH]1
target: UniProtKB O14965
pKi: 7.54

a. Cc1ccc(OCCNc2nc(Nc3cc(C)[nH]n3)cc(C)c2C#N)cn1
b. Cc1cc(Nc2cc(C)c(C#N)c(NCCOc3ccccc3)n2)n[nH]1
Between a and b , which one has the lower reported pKi value? Which one? Tell me its label. a

====

Entries and their GI50
Test: Cytotoxicity against human HCT116 cells assessed as cell growth inhibition
Assay type: functional
Conditions: HCT-116
Could you give me the number in nM? Just the number is fine.

Worked cases, answers included:
entry.smiles: Cc1cc(Nc2cc(C)c(C#N)c(NCCOc3cccnc3C)n2)n[nH]1
unit.info: nM
value.reported: 4
//
entry.smiles: Cc1ccc(OCCNc2nc(Nc3cc(C)[nH]n3)cc(C)c2C#N)cn1
unit.info: nM
value.reported: 1
//
entry.smiles: Cc1cc(Nc2cc(C)c(C#N)c(NCCOc3ccccc3F)n2)n[nH]1
unit.info: nM
value.reported: 26
//
entry.smiles: Cc1cc(Nc2cc(C)c(C#N)c(NCCOc3ccccc3Cl)n2)n[nH]1
unit.info: nM
value.reported: 9
//
entry.smiles: Cc1ccc(OCCNc2nc(Nc3cc(C)[nH]n3)cc(C)c2C#N)c(C)n1
unit.info: nM
value.reported: 37
//
entry.smiles: Cc1cc(Nc2cc(C)c(C#N)c(N[C@@H](C)CCCC(C)(C)O)n2)n[nH]1
unit.info: nM
value.reported: 52
//
entry.smiles: Cc1cc(Nc2cc(C)c(C#N)c(NCCOc3ccccn3)n2)n[nH]1
unit.info: nM
value.reported: 67
//
entry.smiles: Cc1cc(Nc2cc(C)c(C#N)c(NCCOc3ccncc3)n2)n[nH]1
unit.info: nM
value.reported: 120
//
entry.smiles: Cc1cc(Nc2cc(C)c(C#N)c(NCCOc3cccnc3)n2)n[nH]1
unit.info: nM
value.reported: 2
//
entry.smiles: Cc1cc(Nc2cc(C)c(C#N)c(NCCOc3ccccc3)n2)n[nH]1
unit.info: nM
value.reported: 11

Note: attention shifts to another entry.
// field: GI50; key: CCc1ccc(OCCNc2nc(Nc3cc(C)[nH]n3)cc(C)c2C#N)cn1 ; value = 66

====

Biological target: Tyrosine-protein kinase Fyn (Homo sapiens, UniProt P06241)
Sequence (P06241 whole entry): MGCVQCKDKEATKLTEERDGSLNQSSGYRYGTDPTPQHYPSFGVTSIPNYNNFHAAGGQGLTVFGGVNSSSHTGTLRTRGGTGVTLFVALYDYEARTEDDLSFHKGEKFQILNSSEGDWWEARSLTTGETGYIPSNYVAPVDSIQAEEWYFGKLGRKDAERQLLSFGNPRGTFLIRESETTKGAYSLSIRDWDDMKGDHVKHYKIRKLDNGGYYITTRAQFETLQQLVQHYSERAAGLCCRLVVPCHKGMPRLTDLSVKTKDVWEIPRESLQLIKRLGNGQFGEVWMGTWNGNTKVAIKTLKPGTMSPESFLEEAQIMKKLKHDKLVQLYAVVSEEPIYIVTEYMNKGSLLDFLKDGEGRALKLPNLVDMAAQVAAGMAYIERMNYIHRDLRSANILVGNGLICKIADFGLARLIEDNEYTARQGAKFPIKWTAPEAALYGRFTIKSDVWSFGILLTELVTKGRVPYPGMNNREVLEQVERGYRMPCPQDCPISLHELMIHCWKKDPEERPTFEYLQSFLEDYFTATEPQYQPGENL
measure.name: pKi
Scale: negative log10 of molar concentration, which is what pKi denotes.

// field: pKi; key: Cc1ccc(OCCNc2nc(Nc3cc(C)[nH]n3)cc(C)c2C#N)cn1 ; value = 7.10

====

Target: Aurora kinase B (Homo sapiens, UniProt Q96GD4)
Sequence (Q96GD4 whole entry): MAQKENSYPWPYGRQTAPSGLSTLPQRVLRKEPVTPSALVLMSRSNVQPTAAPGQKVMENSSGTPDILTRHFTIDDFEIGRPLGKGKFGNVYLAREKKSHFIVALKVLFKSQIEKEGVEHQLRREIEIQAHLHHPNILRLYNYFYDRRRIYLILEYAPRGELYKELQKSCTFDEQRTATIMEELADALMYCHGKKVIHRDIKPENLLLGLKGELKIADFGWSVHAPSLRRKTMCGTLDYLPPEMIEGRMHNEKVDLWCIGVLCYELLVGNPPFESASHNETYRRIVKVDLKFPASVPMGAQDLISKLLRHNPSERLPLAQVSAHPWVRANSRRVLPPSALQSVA
Experiment: Inhibition of Aurora 1 kinase (unknown origin)
measure.name: pKi
Scale: negative log10 of molar concentration, which is what pKi denotes.

// field: pKi; key: Cc1ccc(OCCNc2nc(Nc3cc(C)[nH]n3)cc(C)c2C#N)cn1 ; value = 8.00

====

Biological target: CYP2D6 (Homo sapiens, UniProt P10635)
Sequence (P10635 whole entry): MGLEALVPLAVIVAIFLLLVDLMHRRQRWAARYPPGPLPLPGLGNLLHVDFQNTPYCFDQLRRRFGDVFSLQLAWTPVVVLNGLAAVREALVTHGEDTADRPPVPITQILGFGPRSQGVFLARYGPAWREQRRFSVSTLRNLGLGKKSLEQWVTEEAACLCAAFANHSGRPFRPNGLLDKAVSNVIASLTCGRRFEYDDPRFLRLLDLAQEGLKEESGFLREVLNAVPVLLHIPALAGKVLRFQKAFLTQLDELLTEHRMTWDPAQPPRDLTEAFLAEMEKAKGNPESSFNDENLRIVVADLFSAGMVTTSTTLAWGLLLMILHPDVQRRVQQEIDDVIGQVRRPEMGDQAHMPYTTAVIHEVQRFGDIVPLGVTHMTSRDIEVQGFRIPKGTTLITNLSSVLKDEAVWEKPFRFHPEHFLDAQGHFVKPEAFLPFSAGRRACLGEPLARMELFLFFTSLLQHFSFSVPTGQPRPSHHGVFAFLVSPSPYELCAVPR
Assay: Inhibition of CYP2D6 (unknown origin)
Format: ADME
pIC50: −log10 of the molar value.
measure.name: pIC50

// field: pIC50; key: Cc1cc(Nc2cc(C)c(C#N)c(N[C@@H](C)CCCC(C)(C)O)n2)n[nH]1 ; value = > 4.30

====

Target: Cytochrome P450 1A2 (Homo sapiens, UniProt P05177)
Sequence (P05177 whole entry): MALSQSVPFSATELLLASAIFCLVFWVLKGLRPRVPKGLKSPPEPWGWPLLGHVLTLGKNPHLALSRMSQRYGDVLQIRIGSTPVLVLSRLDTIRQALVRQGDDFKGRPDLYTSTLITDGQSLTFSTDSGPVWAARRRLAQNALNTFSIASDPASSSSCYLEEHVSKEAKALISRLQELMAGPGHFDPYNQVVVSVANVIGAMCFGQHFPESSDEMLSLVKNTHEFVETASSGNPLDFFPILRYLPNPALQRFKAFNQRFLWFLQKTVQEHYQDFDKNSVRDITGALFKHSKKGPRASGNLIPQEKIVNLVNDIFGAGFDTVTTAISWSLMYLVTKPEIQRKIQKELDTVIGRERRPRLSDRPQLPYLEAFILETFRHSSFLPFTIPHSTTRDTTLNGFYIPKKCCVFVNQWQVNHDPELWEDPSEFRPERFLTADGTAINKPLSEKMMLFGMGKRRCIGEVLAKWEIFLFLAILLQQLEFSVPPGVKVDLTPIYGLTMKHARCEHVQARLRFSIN
measure.name: IC50

Worked cases, answers included:
entry.smiles: Cc1ccc(OCCNc2nc(Nc3cc(C)[nH]n3)cc(C)c2C#N)c(C)n1
IC50: > 50 µM
//
entry.smiles: Cc1cc(Nc2cc(C)c(C#N)c(NCCOc3ccccn3)n2)n[nH]1
IC50: < 0.4 µM

Note: attention shifts to another entry.
// field: IC50; key: Cc1cc(Nc2cc(C)c(C#N)c(NCCOc3ccccc3F)n2)n[nH]1 ; value = < 0.4 µM
